Tested on: Bemisia tabaci ESP-00
Assay: Leaf-dip bioassay, adult whiteflies, multi-resistant strain ESP-00
Format: in vivo
Conditions: adults, multi-resistant strain ESP-00, mortality after 72 h
Everything with ESP-00 LC50 lower than 80 ppm is rule not met; everything else, including exactly 80 ppm, is rule met.

Prompt: hey, is ESP-00 LC50 for this one >= 80 ppm? O=[N+]([O-])NC1=NCCN1Cc1ccc(Cl)nc1 [Imidacloprid]
Completion: rule met

Prompt: Could you verify whether the entry O=C1C=C(N(Cc2ccc(Cl)nc2)CC(F)F)CO1 [Verbindung I-5] shows ESP-00 LC50 of no less than 80 ppm?
Completion: rule not met

Prompt: Item CC1=NNC(=O)N(/N=C/c2cccnc2)C1 [Pymetrozin] with ESP-00 LC50 of 80 ppm or above?
Completion: rule met

Prompt: Has CN/C(=N/CC1CCOC1)N[N+](=O)[O-] (centres unmarked) [Dinotefuran] a recorded ESP-00 LC50 greater than or equal to 80 ppm?
Completion: rule not met

Prompt: Could you verify whether the entry CN1COCN(Cc2cnc(Cl)s2)/C1=N\[N+](=O)[O-] [Thiamethoxam] shows ESP-00 LC50 of no less than 80 ppm?
Completion: rule not met

###

System: Bemisia tabaci SUD-S
Assay: Leaf-dip bioassay, adult whiteflies, insecticide-susceptible strain SUD-S
Assay type: in vivo
Details: adults, mortality after 72 h
Please go through the items and note down their SUD-S LC50.

Prompt: Entry `O=[N+]([O-])NC1=NCCN1Cc1ccc(Cl)nc1` has what SUD-S LC50?
Completion: 0.82 ppm

Prompt: Please report the recorded SUD-S LC50 for `CN1COCN(Cc2cnc(Cl)s2)/C1=N\[N+](=O)[O-]` .
Completion: 1.1 ppm

Prompt: Look at this molecule and give its reported SUD-S LC50. `O=C1C=C(N(Cc2ccc(Cl)nc2)CC(F)F)CO1`
Completion: 6.7 ppm

Prompt: Quick one: SUD-S LC50 of CN/C(=N/CC1CCOC1)N[N+](=O)[O-] (centres unmarked) ?
Completion: 0.17 ppm

Prompt: Fill in: SUD-S LC50 of `CC1=NNC(=O)N(/N=C/c2cccnc2)C1` is ___
Completion: 0.49 ppm

Each recorded value in this set is attributed to patent EP2198709A1.
